- experimental.system: T1, chimeric OX40 construct 1548: Human OX40 with mouse module 3 and domains 4A and 4B (aa 108-167) (human; mouse, UniProt P47741 104-165)
- T1 construct: domain: module 3 and domains 4A and 4B; On 293-F cells; limits derived as for 1544
- T1 sequence: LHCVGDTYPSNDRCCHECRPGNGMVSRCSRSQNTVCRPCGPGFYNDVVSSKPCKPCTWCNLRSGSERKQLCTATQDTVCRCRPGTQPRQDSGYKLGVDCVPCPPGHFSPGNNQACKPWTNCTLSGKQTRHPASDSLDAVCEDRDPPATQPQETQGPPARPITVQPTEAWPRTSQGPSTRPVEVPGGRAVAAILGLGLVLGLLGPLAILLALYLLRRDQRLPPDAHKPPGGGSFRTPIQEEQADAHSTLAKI
- assay.protocol: flow cytometry, transfected 293-F cells
This listing pairs binders with measured relative MFI compared to isotype control.
Hey, just send me the number, nothing else.

Look up relative MFI compared to isotype control: anti-OX40 antibody 1170/1171 (antibody, V domains shown, Tested as IgG) VH: EVQLLESGGGLVQPGGSLRLSCAASGFTFGGYYMSWVRQAPGKGLEWVSYIPGSGGSTYYADSVKGRFTISRDNSKNTLYLQMNSLRAEDTAVYYCARYDYYWMDYWGQGTLVTVSS VL: DIQMTQSPSSLSASVGDRVTITCRASQSISSYLNWYQQKPGKAPKLLIYAASSLQSGVPSRFSGSGSGTDFTLTISSLQPEDFATYYCQQGHGSYPHTFGQGTKLEIK
20.3

Look up relative MFI compared to isotype control: anti-OX40 antibody 1526/1527 (antibody, V domains shown, Tested as IgG) VH: EVQLLESGGGLVQPGGSLRLSCAASGFTFSGYSMYWVRQAPGKGLEWVSGIGYSGYGTYYADSVKGRFTISRDNSKNTLYLQMNSLRAEDTAVYYCARYYFHDYAAYSLDYWGQGTLVTVSS VL: DIQMTQSPSSLSASVGDRVTITCRASQSISSYLNWYQQKPGKAPKLLIYAASSLQSGVPSRFSGSGSGTDFTLTISSLQPEDFATYYCQQYGSDSLLTFGQGTKLEIK
12.7

Look up relative MFI compared to isotype control: anti-OX40 antibody 1166/1167 (antibody, V domains shown, also called monospecific OX40 antibody) VH: EVQLLESGGGLVQPGGSLRLSCAASGFTFGGYYMSWVRQAPGKGLEWVSAISGSGGSTYYADSVKGRFTISRDNSKNTLYLQMNSLRAEDTAVYYCARYDYASMDYWGQGTLVTVSS VL: DIQMTQSPSSLSASVGDRVTITCRASQSISSYLNWYQQKPGKAPKLLIYAASSLQSGVPSRFSGSGSGTDFTLTISSLQPEDFATYYCQQYYWYGLSTFGQGTKLEIK
15.8
